This collection of values is drawn from patent US9216999B2.

Quick list: IC50 per entry.
- Target Or Test System: JAK3 (Homo sapiens (Human), UniProt P52333)
- Sequence (P52333 whole entry): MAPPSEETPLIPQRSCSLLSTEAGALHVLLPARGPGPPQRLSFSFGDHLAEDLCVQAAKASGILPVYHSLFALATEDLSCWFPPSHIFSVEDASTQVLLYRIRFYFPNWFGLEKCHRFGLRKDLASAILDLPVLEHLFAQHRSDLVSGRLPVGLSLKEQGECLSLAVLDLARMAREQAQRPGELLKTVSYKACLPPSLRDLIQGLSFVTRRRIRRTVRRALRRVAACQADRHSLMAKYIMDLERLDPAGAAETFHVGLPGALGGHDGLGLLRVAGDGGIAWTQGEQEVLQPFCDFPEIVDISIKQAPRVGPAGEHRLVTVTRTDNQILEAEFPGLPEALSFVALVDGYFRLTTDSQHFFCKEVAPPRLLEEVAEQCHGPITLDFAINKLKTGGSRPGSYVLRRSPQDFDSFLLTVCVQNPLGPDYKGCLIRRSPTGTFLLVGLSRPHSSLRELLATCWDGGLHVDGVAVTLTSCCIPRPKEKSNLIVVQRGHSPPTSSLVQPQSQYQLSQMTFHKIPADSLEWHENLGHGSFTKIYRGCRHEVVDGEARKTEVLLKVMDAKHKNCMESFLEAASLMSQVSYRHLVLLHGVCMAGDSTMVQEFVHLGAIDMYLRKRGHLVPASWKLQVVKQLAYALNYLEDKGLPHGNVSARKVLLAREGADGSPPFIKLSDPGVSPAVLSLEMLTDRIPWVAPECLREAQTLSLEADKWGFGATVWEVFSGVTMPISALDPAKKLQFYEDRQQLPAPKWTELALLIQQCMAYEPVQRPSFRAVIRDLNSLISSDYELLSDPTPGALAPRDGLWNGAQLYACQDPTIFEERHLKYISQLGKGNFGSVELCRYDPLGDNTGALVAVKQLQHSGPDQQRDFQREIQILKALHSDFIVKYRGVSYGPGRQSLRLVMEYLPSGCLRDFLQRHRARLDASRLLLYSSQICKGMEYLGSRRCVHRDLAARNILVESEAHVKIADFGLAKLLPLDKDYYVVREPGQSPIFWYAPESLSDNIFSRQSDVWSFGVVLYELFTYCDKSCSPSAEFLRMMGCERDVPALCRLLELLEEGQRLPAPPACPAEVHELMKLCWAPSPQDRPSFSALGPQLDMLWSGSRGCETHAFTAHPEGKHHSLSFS
- Measurement Protocol: Enzyme assay (Assay Example^a 1), JAK3
- Format: biochemical
- Experimental Parameters: ATP 100 μM
Metric Name: IC50 (µM)

Compound: FC(F)(F)C(N[C@H]1CC[C@H](c2nnn3cnc4[nH]ccc4c23)CC1)C(F)(F)F [400b]
Metric Name: IC50
Result Qualifier: >
Observed Result: 1
//
Compound: O=C(N[C@@H]1CCN(C[C@H]2CC[C@H](c3nnn4cnc5[nH]ccc5c34)CC2)C1)C(F)(F)F
Metric Name: IC50
Result Qualifier: >
Observed Result: 1
//
Compound: Fc1ccc(C2(NC[C@H]3CC[C@H](c4nnn5cnc6[nH]ccc6c45)CC3)COC2)cc1
Metric Name: IC50
Result Qualifier: =
Observed Result: 0.2
//
Compound: CC(C#N)[C@H]1CC[C@H](c2nnn3cnc4[nH]ccc4c23)CC1 (some centres unmarked) [439b]
Metric Name: IC50
Result Qualifier: =
Observed Result: 0.33
//
Compound: CC1(NC[C@H]2CC[C@H](c3nnn4cnc5[nH]ccc5c34)CC2)CC1
Metric Name: IC50
Result Qualifier: =
Observed Result: 0.84
//
Compound: CN(CCC#N)C[C@H]1CC[C@H](c2nnn3cnc4[nH]ccc4c23)CC1
Metric Name: IC50
Result Qualifier: =
Observed Result: 0.49
//
Compound: COc1ccc(C(O)(CN[C@H]2CC[C@H](c3nnn4cnc5[nH]ccc5c34)CC2)C(F)(F)F)cn1 (some centres unmarked) [387b]
Metric Name: IC50
Result Qualifier: =
Observed Result: 0.12
//
Compound: Clc1ccc(C2(NC[C@H]3CC[C@H](c4nnn5cnc6[nH]ccc6c45)CC3)COC2)cc1
Metric Name: IC50
Result Qualifier: =
Observed Result: 0.24
//
Compound: N#Cc1ccc(CN2CCC(c3nnn4cnc5[nH]ccc5c34)CC2)cc1C#N
Metric Name: IC50
Result Qualifier: =
Observed Result: 0.96
//
Compound: O=C(NCC(O)(c1ccc(F)cc1)C(F)(F)F)[C@H]1CC[C@H](c2nnn3cnc4[nH]ccc4c23)CC1 (some centres unmarked)
Metric Name: IC50
Result Qualifier: =
Observed Result: 0.65
//
Compound: NC(=O)c1ccc(CN2CCC(c3nnn4cnc5[nH]ccc5c34)CC2)cc1
Metric Name: IC50
Result Qualifier: >
Observed Result: 1
//
Compound: CN(CCC#N)c1ccc(CN2CCC(c3nnn4cnc5[nH]ccc5c34)CC2)cc1
Metric Name: IC50
Result Qualifier: >
Observed Result: 1
//
Compound: OC12CC3CC(C1)C(NC[C@H]1CC[C@H](c4nnn5cnc6[nH]ccc6c45)CC1)C(C3)C2 (some centres unmarked) [compound 303]
Metric Name: IC50
Result Qualifier: >
Observed Result: 1
//
Compound: O=C(NCC(F)(F)F)[C@H]1CC[C@H](c2nnn3cnc4[nH]ccc4c23)CC1
Metric Name: IC50
Result Qualifier: =
Observed Result: 0.69
//
Compound: CC1(O)CN(C[C@H]2CC[C@H](c3nnn4cnc5[nH]ccc5c34)CC2)C1
Metric Name: IC50
Result Qualifier: >
Observed Result: 1
//
Compound: N#CCN[C@H]1CC[C@H](c2nnn3cnc4[nH]ccc4c23)CC1 [393b]
Metric Name: IC50
Result Qualifier: =
Observed Result: 0.79
//
Compound: Fc1cc(C(F)(F)F)cc(F)c1CN1CCC(c2nnn3cnc4[nH]ccc4c23)CC1
Metric Name: IC50
Result Qualifier: =
Observed Result: 0.43
